Target entity: T1, membrane-bound full-length human CD89 (human, UniProt P24071 22-287)
T1 construct: on stably or transiently transfected HEK293F cells; also called FcalphaRI; huCD89
Run description: FACS, HEK293F-huCD89, 24 h 37C no NaN3, IgA then Ab 10 ug/mL; pre-bound heat-aggr serum IgA
// values below are reported percent IgA binding (remaining)

Binder	percent IgA binding (remaining)
mouse anti-human CD89-specific antibody 10E7 (antibody, mouse IgG1, V domains shown) VH: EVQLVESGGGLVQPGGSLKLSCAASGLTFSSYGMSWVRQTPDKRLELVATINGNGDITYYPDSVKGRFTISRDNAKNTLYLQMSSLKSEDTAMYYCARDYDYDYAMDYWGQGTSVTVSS VL: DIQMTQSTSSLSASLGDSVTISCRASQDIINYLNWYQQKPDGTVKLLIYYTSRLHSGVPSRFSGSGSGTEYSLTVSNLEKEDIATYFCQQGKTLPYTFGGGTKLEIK	0 to 25%

Proceed to the following item.
## Input Tell me the measured percent IgA binding (remaining) of mouse anti-human CD89-specific antibody 16D6 (antibody, mouse IgG1, V domains shown, also called 16D16) VH: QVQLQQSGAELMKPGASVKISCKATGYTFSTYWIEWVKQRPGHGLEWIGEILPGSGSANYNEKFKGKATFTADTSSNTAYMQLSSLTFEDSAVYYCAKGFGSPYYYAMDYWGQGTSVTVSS VL: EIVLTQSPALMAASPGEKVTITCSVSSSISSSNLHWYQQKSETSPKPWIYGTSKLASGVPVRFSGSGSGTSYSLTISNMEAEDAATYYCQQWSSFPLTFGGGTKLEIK , please.
## Output 76 to 125%
